The values you see were collected from the supplement of paper PMC10567573.

B1: TRIM43 (parent)
chain: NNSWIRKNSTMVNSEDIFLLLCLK

- Variants of: B1
- assay-overview: protein stability index of a GFP-peptide fusion (GPS, HEK-293T) (PSI 1-6); higher = more stable;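 also: lentivirally expressed fusions sorted by FACS into six bins by GFP to DsRed ratio, PSI derived from sequencing read proportions per bin multiplied by bin number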
- settings: c terminus: a fixed tail appended
Decision: protein stability index >= 3 yields t, all other cases yield f.

Worked examples follow.
sequence-record	classification
NNSWIRKNSTMINSEDIFLLLCLK	f
NNSWIRKNSTMVNSEDIFLPLCLK	f
NNSWIRKGSTMVNSEDIFLLLCLK	f

Entry NNSWIRKNSTMKNSEDIFLLLCLK : is its protein stability index no less than 3?
f

Entry NNSCIRKNSTMVNSEDIFLLLCLK : is its protein stability index no less than 3?
t

Entry NNSWIRKNSTMVYSEDIFLLLCLK : is its protein stability index no less than 3?
f

Entry NNSWIRKNSSMVNSEDIFLLLCLK : is its protein stability index no less than 3?
t

Entry NNSWIRKSSTMVNSEDIFLLLCLK : is its protein stability index no less than 3?
f

Entry NNSWIRKNSTMNNSEDIFLLLCLK : is its protein stability index no less than 3?
t
